Listing of entries alongside the reported pIC50.
molecular target: Recombinant STAT3 protein (STAT3(G127-I722)) (Homo sapiens); construct: STAT3(G127-I722); assay: STAT3 Fluorescence Polarization (FP) Assay; conditions: STAT3(G127-I722) 25 nM, probe 5-FAM-GpYLPQTV-NH2 2 nM, 45-minute incubation
Sequence (P40763 127-722, species assumed): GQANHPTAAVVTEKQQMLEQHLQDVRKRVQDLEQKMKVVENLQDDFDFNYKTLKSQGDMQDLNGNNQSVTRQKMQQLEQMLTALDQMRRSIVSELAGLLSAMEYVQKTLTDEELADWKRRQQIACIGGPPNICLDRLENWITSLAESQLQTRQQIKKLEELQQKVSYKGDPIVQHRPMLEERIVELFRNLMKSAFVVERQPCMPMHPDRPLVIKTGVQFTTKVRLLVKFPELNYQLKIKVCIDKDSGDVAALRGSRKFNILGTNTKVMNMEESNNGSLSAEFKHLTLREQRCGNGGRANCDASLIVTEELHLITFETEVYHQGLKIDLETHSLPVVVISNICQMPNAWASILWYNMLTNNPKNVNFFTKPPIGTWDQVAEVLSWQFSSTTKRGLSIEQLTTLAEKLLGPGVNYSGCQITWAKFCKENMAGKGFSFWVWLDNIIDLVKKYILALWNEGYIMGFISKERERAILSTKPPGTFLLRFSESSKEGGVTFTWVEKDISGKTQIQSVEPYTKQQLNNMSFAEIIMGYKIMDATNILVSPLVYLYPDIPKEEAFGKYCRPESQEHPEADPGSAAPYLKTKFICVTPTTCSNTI
pIC50: −log10 of the molar value.

MOLECULE	ENDPOINT_NAME	MEASURED_VALUE
O=C(N[C@H]1C[C@@H]2C[C@@H]2CC2CC[C@@H](C(=O)N3CC(c4cncnc4N4CCC4)C3)N2C1=O)c1cc2cc([C@@H](F)P(=O)(O)O)ccc2s1 (single isomer, unassigned)	pIC50	> 7.00

Let us move to another entry and its pIC50.
The value of pIC50 measured for the molecule O=C(N[C@H]1C[C@@H]2C[C@@H]2C[C@H]2CC[C@@H](C(=O)N3CC(c4cnccc4N4CCOCC4)C3)N2C1=O)c1cc2cc([C@H](F)P(=O)(O)O)ccc2s1 (single isomer, unassigned) turned out to be > 7.00

---

biological target: pSTAT3 (pY705-STAT3) (Homo sapiens); construct: host or cells: cryopreserved PBMC; assay: MSD-pSTAT-PBMC Assay (pSTAT3, IL-6 stimulated); assay type: cell-based
Sequence (P40763 whole entry): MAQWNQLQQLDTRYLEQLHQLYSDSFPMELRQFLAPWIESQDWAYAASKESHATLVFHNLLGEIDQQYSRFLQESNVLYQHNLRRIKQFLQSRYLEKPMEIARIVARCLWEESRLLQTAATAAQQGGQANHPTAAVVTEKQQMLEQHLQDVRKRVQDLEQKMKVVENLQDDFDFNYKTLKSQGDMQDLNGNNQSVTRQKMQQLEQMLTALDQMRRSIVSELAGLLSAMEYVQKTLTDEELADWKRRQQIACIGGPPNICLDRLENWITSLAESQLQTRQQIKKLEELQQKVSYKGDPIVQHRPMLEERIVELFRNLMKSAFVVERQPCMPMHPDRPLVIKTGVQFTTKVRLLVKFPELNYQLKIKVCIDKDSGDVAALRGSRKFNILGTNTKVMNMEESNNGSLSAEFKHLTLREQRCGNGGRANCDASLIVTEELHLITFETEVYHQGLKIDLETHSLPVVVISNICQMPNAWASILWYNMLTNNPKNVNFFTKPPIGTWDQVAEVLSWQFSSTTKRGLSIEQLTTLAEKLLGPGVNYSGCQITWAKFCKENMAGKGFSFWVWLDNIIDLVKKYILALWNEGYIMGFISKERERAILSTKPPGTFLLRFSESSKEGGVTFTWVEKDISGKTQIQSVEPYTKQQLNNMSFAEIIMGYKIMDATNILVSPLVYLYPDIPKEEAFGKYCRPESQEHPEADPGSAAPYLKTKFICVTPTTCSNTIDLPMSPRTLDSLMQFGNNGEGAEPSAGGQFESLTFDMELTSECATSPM
pIC50: −log10 of the molar value.
ENDPOINT_NAME: pIC50

Examples from the recorded data:
COMPOUND	pIC50
CCCOC(=O)[C@@H](C)NP(=O)(Oc1ccccc1)C(F)c1ccc2sc(C(=O)N[C@H]3C[C@@H]4C[C@@H]4C[C@H]4CC[C@@H](C(=O)N5C[C@@H]6[C@H]5CCN6C(C)=O)N4C3=O)cc2c1 (stereo in doubt)	> 7.00
CCCOC(=O)[C@H](C)NP(=O)(Oc1ccccc1)C(F)c1ccc2sc(C(=O)N[C@H]3C[C@@H]4C[C@@H]4C[C@H]4CC[C@@H](C(=O)N[C@H]5CN(C(N)=O)C[C@@H]5F)N4C3=O)cc2c1 (stereo partly shown)	6.00 to 7.00
O=C(N[C@H]1C[C@@H]2C[C@@H]2C[C@H]2CC[C@@H](C(=O)N3CC(C(=O)N4CCOCC4)C3)N2C1=O)c1cc2cc(C(F)(F)P(=O)(N[C@@H](CCc3ccccc3)C(=O)OCc3ccccc3)Oc3ccccc3)ccc2s1 (stereo partly shown)	< 5.52

The record that follows has no pIC50 shown yet.
get_value(item= CCCOC(=O)[C@H](C)NP(=O)(Cc1ccc2sc(C(=O)N[C@H]3C[C@H]4C[C@H]4C[C@H]4CC[C@@H](C(=O)N5CC(c6cnccc6CC)C5)N4C3=O)cc2c1)Oc1ccccc1 (stereo partly shown) , readout=pIC50) returns > 7.00

---

target: Recombinant STAT3 protein (STAT3(G127-I722)) (Homo sapiens); construct: STAT3(G127-I722); assay: STAT3 Fluorescence Polarization (FP) Assay; conditions: STAT3(G127-I722) 25 nM, probe 5-FAM-GpYLPQTV-NH2 2 nM, 45-minute incubation
# key: entry, value: IC50

MOLECULE	STUDY_TARGET	IC50
O=C(N[C@H]1C[C@H]2C[C@H]2C[C@H]2CC[C@@H](C(=O)N3CC(c4ncccn4)C3)N2C1=O)c1cc2cc(C(F)(F)P(=O)(O)O)ccc2s1 [Compound 80]	Recombinant STAT3 protein (STAT3(G127-I722)) (Homo sapiens)	< 100 nM

The reported IC50 value, Recombinant STAT3 protein (STAT3(G127-I722)) (Homo sapiens), for CN=S(C)(=O)CC1CN(C(=O)[C@@H]2CC[C@@H]3C[C@@H]4C[C@@H]4C[C@H](NC(=O)c4cc5cc(C(F)(F)P(=O)(O)O)ccc5s4)C(=O)N32)C1 (some centres unmarked) [Compound 72] reads < 100 nM

// assay Recombinant STAT3 protein (STAT3(G127-I722)) (Homo sapiens), entry O=C(N[C@H]1C[C@@H]2C[C@@H]2C[C@H]2CC[C@@H](C(=O)N3CC(Cc4ccc(F)cc4F)C3)N2C1=O)c1cc2cc(CP(=O)(O)O)ccc2s1 [Example 377] , IC50 value = 100 to 1000 nM

Observed IC50 on Recombinant STAT3 protein (STAT3(G127-I722)) (Homo sapiens), entry O=C(N[C@H]1C[C@@H]2C[C@@H]2C[C@H]2CC[C@@H](C(=O)N3CCN(C(=O)c4cc[nH]n4)CC3)N2C1=O)c1cc2cc(C(F)(F)P(=O)(O)O)ccc2s1 [Compound 105] , equals 100 to 1000 nM

// assay Recombinant STAT3 protein (STAT3(G127-I722)) (Homo sapiens), entry O=C(N[C@H]1C[C@H]2C[C@H]2C[C@H]2CC[C@@H](C(=O)N3CC(c4cnccc4O)C3)N2C1=O)c1cc2cc(CP(=O)(O)O)ccc2s1 [Example 294] , IC50 value = < 100 nM

The reported IC50 value, Recombinant STAT3 protein (STAT3(G127-I722)) (Homo sapiens), for CN1CCN(c2ccncc2C2CN(C(=O)[C@@H]3CC[C@@H]4C[C@H]5C[C@H]5C[C@H](NC(=O)c5cc6cc([C@@H](F)P(=O)(O)O)ccc6s5)C(=O)N43)C2)CC1 (single isomer, unassigned) [Example 404] reads < 100 nM

# lookup: CC(=O)N1C[C@H](NC(=O)[C@@H]2CC[C@@H]3C[C@]4(C)C[C@@H]4C[C@H](NC(=O)c4cc5cc(CP(=O)(O)O)ccc5s4)C(=O)N32)[C@@H](F)C1 [Example 273] on Recombinant STAT3 protein (STAT3(G127-I722)) (Homo sapiens), IC50 = 1000 to 10000 nM

IC50 for Recombinant STAT3 protein (STAT3(G127-I722)) (Homo sapiens) with input O=C(N[C@H]1C[C@H]2C[C@H]2C[C@H]2CC[C@@H](C(=O)N3CCN(C4CCOCC4)CC3)N2C1=O)c1cc2cc(C(F)(F)P(=O)(O)O)ccc2s1 [Compound 125] equals 100 to 1000 nM

Note to self: IC50 of C[C@]12CC[C@H](NC(=O)c3cc4cc(CP(=O)(O)O)ccc4s3)C(=O)N3[C@H](CC[C@H]3C(=O)N3CC(c4cccnc4)C3)[C@H]1C2 [Example 235] with Recombinant STAT3 protein (STAT3(G127-I722)) (Homo sapiens) was 100 to 1000 nM

Measured IC50 for this entry CC(c1ccc2sc(C(=O)N[C@H]3C[C@@H]4C[C@@H]4C[C@H]4CC[C@@H](C(=O)N5CC(C(=O)N6CCOCC6)C5)N4C3=O)cc2c1)P(=O)(O)O (some centres unmarked) [Compound 35] on Recombinant STAT3 protein (STAT3(G127-I722)) (Homo sapiens): 100 to 1000 nM

Measured IC50 for this entry O=C(N[C@H]1C[C@@H]2C[C@@H]2C[C@H]2CC[C@@H](C(=O)N3CC(c4ccccc4)C3)N2C1=O)c1cc2cc(C(F)P(=O)(O)O)ccc2s1 (some centres unmarked) [Example 390] on Recombinant STAT3 protein (STAT3(G127-I722)) (Homo sapiens): 100 to 1000 nM
